# Target or system: Human CD27, full length on the cell surface (human, UniProt P26842 21-260)
# Sequence (P26842 21-260 H233R): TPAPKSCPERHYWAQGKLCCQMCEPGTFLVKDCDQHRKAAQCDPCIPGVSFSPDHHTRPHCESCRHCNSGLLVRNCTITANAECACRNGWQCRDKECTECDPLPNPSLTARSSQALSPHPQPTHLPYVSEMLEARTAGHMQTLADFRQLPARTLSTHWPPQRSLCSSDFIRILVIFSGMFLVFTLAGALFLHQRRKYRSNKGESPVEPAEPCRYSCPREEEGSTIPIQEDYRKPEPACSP
# Method notes: cell-based or functional assay
Endpoint: NF-kB Assay IC50 (nM)
// note: answer is a bare numeric in nM

Binder: M713 (antibody, V domains shown, also called single-gene DNA ID 713) VH: QVQLVQSGAEVKKPGASVKVSCKASGYAFSSSWMNWVRQAPGQGLEWMGRIYSGDADTNYAQKFKGRVTMTRDTSTSTVYMELSSLRSEDTAVYYCARSDYYGDYGFAYWGQGTLVTVSS VL: DIQMTQSPSSLSASVGDRVTITCKASQSVDYAGESFMNWYQQKPGKAPKLLIYAASNLESGVPSRFSGSGSGTDFTLTISSLQPEDFATYYCQQSNEDPYTFGQGTKVEIK
Value: 0.296
--
Binder: M711 (antibody, V domains shown, also called single-gene DNA ID 711) VH: EVQLVQSGAEVKKPGESLKISCKGSGYAFSSSWMNWVRQMPGKGLEWMGRIYSGDADTNYNQKFKGQVTISADKSISTAYLQWSSLKASDTAMYYCARSDYYGDYGFAYWGQGTLVTVSS VL: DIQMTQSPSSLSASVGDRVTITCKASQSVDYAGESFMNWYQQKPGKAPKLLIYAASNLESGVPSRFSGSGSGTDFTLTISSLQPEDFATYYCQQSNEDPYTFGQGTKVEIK
Value: 0.258

GET /value?item= M709 (antibody, V domains shown, also called single-gene DNA ID 709) VH: EVQLVQSGAEVKKPGESLKISCKGSGYAFSSSWMNWVRQMPGKGLEWMGRIYAGDADTAYSPSFQGQVTISADKSISTAYLQWSSLKASDTAMYYCARSDYYGDYGFAYWGQGTLVTVSS VL: DIVMTQSPDSLAVSLGERATINCKASQSVDYAGESFMNWYQQKPGQPPKLLIYAASNLESGVPDRFSGSGSGTDFTLTISSLQAEDVAVYYCQQSNEDPYTFGQGTKLEIK &field=NF-kB Assay IC50 returns 0.272

binder M710 (antibody, V domains shown, also called single-gene DNA ID 710) VH: EVQLVQSGAEVKKPGESLKISCKGSGYAFSSSWMNWVRQMPGKGLEWMGRIYAGDADTNYAPSFQGQVTISADKSISTAYLQWSSLKASDTAMYYCARSDYYGDYGFAYWGQGTLVTVSS VL: DIVMTQSPDSLAVSLGERATINCKASQSVDYAGESFMNWYQQKPGQPPKLLIYAASNLESGVPDRFSGSGSGTDFTLTISSLQAEDVAVYYCQQSNEDPYTFGQGTKLEIK , NF-kB Assay IC50 observed: 0.32
